Origin of measurements: PubChem BioAssay AID1531

Measured binding response (% of control) accompanies every entry in the list below.
Molecular target: Mitogen-activated protein kinase kinase kinase 2 (Homo sapiens) (UniProt Q9Y2U5)
Test: modulators of MEK5 binding to wildtype MEKK2, primary screen, biochemical, multiplex bead flow cytometry, Alexa488-MEK5 (AID 1531)
Conditions: Alexa488-MEK5 binding to MEKK2 WT, at 10 µM, actives lie on both sides
In all, about 290,000 compounds went through this assay and about 3,300 (1.1%) were called active. Shown is part of a subset that was picked to be rich in actives.
Respond with the bare value in %.

Below, 4 compounds whose answers are already recorded.
{"compound": "COc1ccc(C2=NN(C(=O)c3ccccc3C(=O)O)C(c3ccccc3O)C2)cc1 (stereo unspecified)", "target": "Mitogen-activated protein kinase kinase kinase 2 (Homo sapiens) (UniProt Q9Y2U5)", "unit-name": "%", "binding response (% of control)": 100}
{"compound": "COc1ccc(C(=O)NC(=S)N2CCNC(=O)C2CC(=O)OC(C)C)cc1 (stereo unspecified)", "target": "Mitogen-activated protein kinase kinase kinase 2 (Homo sapiens) (UniProt Q9Y2U5)", "unit-name": "%", "binding response (% of control)": 107}
{"compound": "COc1ccc(-c2noc(C(C)NS(=O)(=O)c3ccc(NC(C)=O)cc3)n2)cc1 (stereo unspecified)", "target": "Mitogen-activated protein kinase kinase kinase 2 (Homo sapiens) (UniProt Q9Y2U5)", "unit-name": "%", "binding response (% of control)": 95}
{"compound": "CN(Cc1ccccc1)CC(O)COc1ccc(CNCc2cc3ccccc3s2)cc1 (stereo unspecified)", "target": "Mitogen-activated protein kinase kinase kinase 2 (Homo sapiens) (UniProt Q9Y2U5)", "unit-name": "%", "binding response (% of control)": 138}

Prompt line: Report binding response (% of control) for CC(C)CCn1cnc2c1c(=O)n(CC(=O)NC(N)=O)c(=O)n2Cc1ccccc1 please.
Response line: 99

Prompt line: # iterate: CC(C)(C)Oc1ccccc1Nc1nc(NCCO)nc(N2CCCC2)n1
Response line: 103

Prompt line: # iterate: COc1cccc(N(CC(=O)NC2CCCCCC2)S(=O)(=O)c2ccccc2)c1
Response line: 111

Prompt line: # iterate: CCc1cccc(C)c1NS(=O)(=O)c1cc(Br)cnc1N
Response line: 92

Prompt line: # iterate: OC(CNCc1ccc2c(c1)OCO2)COc1ccccc1 (stereo unspecified)
Response line: 93

Prompt line: # iterate: Cc1ccc(OCC(=O)OC(C)CN(C)Cc2ccccc2)cc1 (stereo unspecified)
Response line: 94

Prompt line: # iterate: CCOc1ccccc1C1CC(c2cccc(NS(C)(=O)=O)c2)=NN1C(=O)c1ccccc1 (stereo unspecified)
Response line: 100

* * *

Target: Mitogen-activated protein kinase kinase kinase 2 (Homo sapiens)
Experiment: modulators of MEK5 binding to wildtype MEKK2, primary screen, biochemical, multiplex bead flow cytometry, Alexa488-MEK5 (AID 1531)
Details: Alexa488-MEK5 binding to MEKK2 WT, at 10 µM, actives lie on both sides
Screen size: about 290,000 compounds; about 3,300 (1.1%) were called active. The entries come from a sample that favours actives as a whole.
Measured binding response (% of control) accompanies every entry in the list below.

Below, 5 molecules whose answers are already recorded.
{"molecule": "O=C(Cc1cccs1)Nc1cccc(-c2nc3ccccc3[nH]2)c1", "experimental-endpoint": "binding response (% of control)", "reported-value": "95% (inactive)"}
{"molecule": "Clc1cccc(Cl)c1OCCOCCNCc1ccccc1", "experimental-endpoint": "binding response (% of control)", "reported-value": "109% (inactive)"}
{"molecule": "CN(C)Cc1c(O)ccc2c(=O)c(-c3ccccc3Cl)coc12", "experimental-endpoint": "binding response (% of control)", "reported-value": "112% (inactive)"}
{"molecule": "O=C(Nc1cccc(-c2nc3ccccc3[nH]2)c1)c1ccc(C(=O)Nc2cccc(-c3nc4ccccc4[nH]3)c2)cc1", "experimental-endpoint": "binding response (% of control)", "reported-value": "63% [inhibitor] (active)"}
{"molecule": "N#CCc1c(C#N)c(N)nc(N2CCCC2)c1C#N", "experimental-endpoint": "binding response (% of control)", "reported-value": "107% (inactive)"}

Prompt line: Report binding response (% of control) for Cc1ccc(-c2nc3ccccc3[nH]2)cc1NC(=O)c1sc2ccccc2c1Cl please.
Response line: 98% (inactive)

Prompt line: # iterate: Cn1c(C(=O)NCCc2ccsc2)cc2c(=O)n(C)c3ccccc3c21
Response line: 97% (inactive)

Prompt line: # iterate: Cn1c(C(=O)NCCCN2CCN(c3cccc(Cl)c3)CC2)cc2c(=O)n(C)c3ccccc3c21
Response line: 173% (active)

Prompt line: # iterate: O=C1Nc2ccc(Br)cc2/C1=N/N=C/C1=C(N2CCOCC2)C(=C\c2ccccc2)/CC1
Response line: 40% [inhibitor] (active)

Prompt line: # iterate: CC(Sc1nnc(-c2ccccc2F)n1C1CC1)C(N)=O (stereo not given)
Response line: 104% (inactive)

* * *

Biological target: Mitogen-activated protein kinase kinase kinase 2 (Homo sapiens) (UniProt Q9Y2U5)
Experiment: modulators of MEK5 binding to wildtype MEKK2, primary screen, biochemical, multiplex bead flow cytometry, Alexa488-MEK5 (AID 1531)
Details: Alexa488-MEK5 binding to MEKK2 WT, at 10 µM, actives lie on both sides
In all, about 290,000 compounds went through this assay and about 3,300 (1.1%) were called active. Cut-off read from the data, not from the text of the source: active = binding response below about 67% or above about 130%; inconclusive = no clear call, values can overlap the other calls; inactive = in between. The sample holds actives, similar compounds and a random draw of the others, so the mix is not that of the screen.
Hi there, use one of these labels in your reply, thanks! yes for active, no for inactive

{"compound": "Cc1ccc(NC(=O)C/C(N)=N/O)cc1Cl", "class-name": "no"}
{"compound": "O=C(Nc1cccc(-c2cccc(Cl)c2)c1)C1CCN(C2CCC2)CC1", "class-name": "yes"}
{"compound": "COc1ccc(CCNC(=O)c2cc3sccc3n2C)cc1OC", "class-name": "no"}
{"compound": "O=C(NCCCN1CCCCCC1)C1CC(=O)N(C2CCCC2)C1 (stereo unspecified)", "class-name": "yes"}
{"compound": "Cn1c(C(=O)N2CCCC(C(=O)NCc3ccccc3)C2)cc2sccc21 (stereo unspecified)", "class-name": "no"}

Prompt line: Write down the call the test reported for this compound. Item: Cc1ccc(NC(=O)COc2ccc(-n3ccnc3)cc2)cc1Cl
Response line: yes

Prompt line: # iterate: C/C=C/C(=O)OCc1csc(CC(=O)Nc2ccccc2C)n1
Response line: no

Prompt line: # iterate: CCn1cc(CN2CCC(n3nccc3NC(=O)CCCc3ccccc3)CC2)c(C)n1
Response line: no

Prompt line: # iterate: O=C(Nc1cccc(-c2cscn2)c1)C1CCN(Cc2ccsc2)CC1
Response line: no

Prompt line: # iterate: Cn1c(C(=O)NCCCN2CCCCC2)cc2sccc21
Response line: yes

Prompt line: # iterate: O=C(COc1ccc(Cl)cc1)Nc1ccc2c(c1)OCO2
Response line: no

* * *

Molecular target: Mitogen-activated protein kinase kinase kinase 2 (Homo sapiens)
Assay: modulators of MEK5 binding to wildtype MEKK2, primary screen, biochemical, multiplex bead flow cytometry, Alexa488-MEK5 (AID 1531)
Conditions: Alexa488-MEK5 binding to MEKK2 WT, at 10 µM, actives lie on both sides
The whole screen tested about 290,000 compounds, of which about 3,300 (1.1%) were called active. Rule as the data show it: active = binding response below about 67% or above about 130%; inconclusive = no clear call, values can overlap the other calls; inactive = in between. The entries come from a sample that favours actives as a whole.
Hi there, use one of these labels in your reply, thanks! active, inactive

Reference set, count: 5
{"molecule": "O=C(CCN1CCc2ccccc2C(O)(c2ccccc2)C1)c1ccc2c(c1)OCCO2 (stereo not given)", "class-name": "inactive"}
{"molecule": "CN(C)c1ccc(/C=C2\\NC(=S)N(Cc3ccccc3)C2=O)cc1", "class-name": "active"}
{"molecule": "COc1cc(OC)c2ccc(=O)oc2c1C(CCN1CCN(c2ccccc2)CC1)c1ccc2c(c1)OCO2 (stereo not given)", "class-name": "inactive"}
{"molecule": "CC1=NN(Cc2ccccc2)C(=O)/C1=C/c1ccc(N(C)C)cc1", "class-name": "inactive"}
{"molecule": "O=C(NCc1ccco1)/C(=C\\c1cccc([N+](=O)[O-])c1)NC(=O)c1ccco1", "class-name": "inactive"}

Prompt line: Write down the call the test reported for this molecule. Item: CC(C)c1nc2cc(C(=O)NC(C)c3cnn(C)c3)ccc2o1 (stereo not given)
Response line: inactive

Prompt line: # iterate: CCOc1ccccc1NC(=O)NC1CCCCCCC1
Response line: inactive

Prompt line: # iterate: COc1cc(OC)c(C(=O)NCc2ccc3c(c2)OCO3)cc1OC
Response line: inactive

Prompt line: # iterate: O=S(=O)(c1ccccc1)c1nc(Cc2ccccc2)oc1N1CCOCC1
Response line: inactive

Prompt line: # iterate: CCN(CC)CCC(c1cc(OC)c(OC)c(OC)c1)c1c(OC)cc(OC)c2c(-c3ccccc3)cc(=O)oc12 (stereo not given)
Response line: inactive

* * *

Target: Mitogen-activated protein kinase kinase kinase 2 (Homo sapiens) (UniProt Q9Y2U5)
Experiment: modulators of MEK5 binding to wildtype MEKK2, primary screen, biochemical, multiplex bead flow cytometry, Alexa488-MEK5 (AID 1531)
Details: Alexa488-MEK5 binding to MEKK2 WT, at 10 µM, actives lie on both sides
In all, about 290,000 compounds went through this assay and about 3,300 (1.1%) were called active. The list comes from a sample in which actives are over-represented; it also holds close analogues and randomly drawn compounds.
experimental-endpoint: binding response (% of control) (%)
Respond with the bare value in %.

{"molecule": "COC(C/C=C/C(=O)[C@@H](C)OCc1ccccc1)OC", "unit-name": "%", "binding response (% of control)": 99}
{"molecule": "CC(C(=O)c1ccc(-c2ccccc2)cc1)[n+]1cccc(Br)c1 (stereo unspecified)", "unit-name": "%", "binding response (% of control)": 123}

Prompt line: Report binding response (% of control) for O=C(O)c1ccccc1C(=O)Nc1ccccc1[N+](=O)[O-] please.
Response line: 0

Prompt line: # iterate: CCOc1ccc(C(=O)NCCCN2CCCC2=O)cc1
Response line: 112

Prompt line: # iterate: O=C(Nc1ccccc1[N+](=O)[O-])C1C(c2ccccc2)=C1c1ccccc1
Response line: 97

Prompt line: # iterate: Cc1cc(CN(C)C(=O)c2cc(COc3ccc(C)c(C)c3)on2)n[nH]1
Response line: 109

Prompt line: # iterate: O=C(CSc1nc(Nc2ccccc2)nc(N2CCOCC2)n1)Nc1cc(Cl)ccc1O
Response line: 99
